Ref: patent US20070128190A1

Catalogue of Ki values
target: T1, human platelet α2β1 integrin (immobilized on microtiter plates) (human, UniProt P17301 30-1181; P05556 21-798); experiment: competition with Eu-TMC-2206 on human platelet α2β1-coated plate
T1 construct: plates custom-coated with human platelet α2β1 by GTI Inc; also called immobilized α2β1 integrin; α2β1-coated plates
T1 sequence (P17301 30-1181 E534K limits assumed, chain 1 of 2): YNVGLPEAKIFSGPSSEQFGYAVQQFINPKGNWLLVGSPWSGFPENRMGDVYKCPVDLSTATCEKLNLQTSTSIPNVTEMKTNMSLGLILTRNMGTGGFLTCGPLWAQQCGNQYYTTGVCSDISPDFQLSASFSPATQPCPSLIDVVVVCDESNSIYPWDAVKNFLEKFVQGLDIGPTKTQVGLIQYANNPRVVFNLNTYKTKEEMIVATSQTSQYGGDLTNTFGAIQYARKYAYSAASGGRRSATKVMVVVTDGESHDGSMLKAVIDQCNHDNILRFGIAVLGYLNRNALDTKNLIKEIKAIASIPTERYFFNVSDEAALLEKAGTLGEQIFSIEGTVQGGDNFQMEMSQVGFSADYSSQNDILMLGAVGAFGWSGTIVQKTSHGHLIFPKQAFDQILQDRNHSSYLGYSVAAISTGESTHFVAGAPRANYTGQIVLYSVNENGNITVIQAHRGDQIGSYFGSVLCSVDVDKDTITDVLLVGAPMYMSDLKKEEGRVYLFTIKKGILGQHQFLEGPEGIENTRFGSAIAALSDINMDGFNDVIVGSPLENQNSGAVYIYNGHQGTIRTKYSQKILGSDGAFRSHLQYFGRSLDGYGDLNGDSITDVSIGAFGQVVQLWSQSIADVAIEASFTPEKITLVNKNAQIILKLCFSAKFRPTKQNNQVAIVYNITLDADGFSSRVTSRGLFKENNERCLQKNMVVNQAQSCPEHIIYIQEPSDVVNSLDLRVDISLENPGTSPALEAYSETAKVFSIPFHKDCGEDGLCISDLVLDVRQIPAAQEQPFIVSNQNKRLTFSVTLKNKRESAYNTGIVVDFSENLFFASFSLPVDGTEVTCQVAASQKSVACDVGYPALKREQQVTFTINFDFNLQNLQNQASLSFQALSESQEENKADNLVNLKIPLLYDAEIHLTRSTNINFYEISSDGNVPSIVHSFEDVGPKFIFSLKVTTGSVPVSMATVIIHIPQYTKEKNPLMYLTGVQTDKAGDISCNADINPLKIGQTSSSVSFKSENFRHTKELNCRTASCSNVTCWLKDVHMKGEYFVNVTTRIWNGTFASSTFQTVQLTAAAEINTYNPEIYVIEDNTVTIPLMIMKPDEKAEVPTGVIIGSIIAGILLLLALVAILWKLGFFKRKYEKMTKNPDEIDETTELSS
T1 sequence (P05556 21-798 limits assumed, chain 2 of 2): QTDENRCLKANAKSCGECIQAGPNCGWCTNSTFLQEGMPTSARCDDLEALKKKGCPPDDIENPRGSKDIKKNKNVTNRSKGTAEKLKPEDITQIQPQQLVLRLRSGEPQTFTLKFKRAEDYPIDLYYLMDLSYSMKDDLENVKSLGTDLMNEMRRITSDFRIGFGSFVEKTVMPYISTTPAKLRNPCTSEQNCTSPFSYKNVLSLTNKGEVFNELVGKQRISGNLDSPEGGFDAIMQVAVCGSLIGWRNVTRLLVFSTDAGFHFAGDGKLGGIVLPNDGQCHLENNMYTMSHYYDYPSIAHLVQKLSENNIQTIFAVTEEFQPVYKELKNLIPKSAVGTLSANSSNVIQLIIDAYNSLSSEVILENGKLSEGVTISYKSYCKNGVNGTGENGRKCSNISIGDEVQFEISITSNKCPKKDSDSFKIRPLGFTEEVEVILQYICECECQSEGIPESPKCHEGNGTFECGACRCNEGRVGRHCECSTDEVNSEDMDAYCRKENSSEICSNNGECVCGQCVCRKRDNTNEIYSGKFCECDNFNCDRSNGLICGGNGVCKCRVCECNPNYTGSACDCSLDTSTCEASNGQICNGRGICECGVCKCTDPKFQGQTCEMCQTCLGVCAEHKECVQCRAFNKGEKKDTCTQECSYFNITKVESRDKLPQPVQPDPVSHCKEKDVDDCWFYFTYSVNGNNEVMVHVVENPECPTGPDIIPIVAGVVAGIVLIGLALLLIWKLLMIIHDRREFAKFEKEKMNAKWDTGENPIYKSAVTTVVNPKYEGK
Quick reminder: number only, in nM, skip the unit.

Binder: humanized TMC-2206 variant hVH4.0/hVL3.0 (antibody, human IgG1, V domains shown, human IgG1/κ constant regions) VH: QVQLQESGPGLVKPSETLSLTCTVSGFSLTNYGIHWIRQPPGKGLEWIGVIWARGFTNYNSALMSRLTISKDNSKNQVSLKLSSVTAADTAVYFCARANDGVYYAMDYWGQGTLVTVSS VL: QFVLTQSPAFLSVTPGEKVTITCSANSSVNYIHWYQQKPDQAPKLLIYDTSKLASGVPSRFSGSGSGTDYTFTISSLEAEDAATYYCQQWTTNPLTFGQGTKVEIK
Measure: Ki
Value: 1.34
--
Binder: humanized TMC-2206 variant hVH3.0/hVL1.0 (antibody, human IgG1, V domains shown, human IgG1/κ constant regions) VH: QVQLQESGPGLVKPSETLSLTCTVSGFSLTNYGIHWVRQPPGKGLEWLGVIWARGFTNYNSALMSRVTISVDTSKNQFSLKLSSVTAADTAVYFCARANDGVYYAMDYWGQGTLVTVSS VL: QFVLTQSPAFLSVTPGEKVTITCSANSSVNYIHWYQQKPDQAPKKWIYDTSKLASGVPSRFSGSGSGTDYTFTISSLEAEDAATYYCQQWTTNPLTFGQGTKVEIK
Measure: Ki
Value: 12
--
Binder: humanized TMC-2206 variant hVH1.0/hVL4.0 (antibody, human IgG1, V domains shown, human IgG1/κ constant regions) VH: QVQLQESGPGLVKPSETLSLTCTVSGFSLTNYGIHWVRQPPGKGLEWLGVIWARGFTNYNSALMSRLTISKDNSKNQVSLKLSSVTAADTAVYFCARANDGVYYAMDYWGQGTLVTVSS VL: DVVMTQSPAFLSVTPGEKVTITCSANSSVNYIHWYQQKPDQAPKKWIYDTSKLASGVPSRFSGSGSGTDYTFTISSLEAEDAATYYCQQWTTNPLTFGQGTKVEIK
Measure: Ki
Value: 1.4

Kindly consider the entry below.
Form: binder = humanized TMC-2206 variant hVH3.0/hVL3.0 (antibody, human IgG1, V domains shown, human IgG1/κ constant regions) VH: QVQLQESGPGLVKPSETLSLTCTVSGFSLTNYGIHWVRQPPGKGLEWLGVIWARGFTNYNSALMSRVTISVDTSKNQFSLKLSSVTAADTAVYFCARANDGVYYAMDYWGQGTLVTVSS VL: QFVLTQSPAFLSVTPGEKVTITCSANSSVNYIHWYQQKPDQAPKLLIYDTSKLASGVPSRFSGSGSGTDYTFTISSLEAEDAATYYCQQWTTNPLTFGQGTKVEIK ; Ki = 202
